Cited source for all entries: paper PMC6514996

- Test: Cytotoxicity against L929 cells, MTT cell viability assay (ISO 10993-5:2009(E))
- Type: cell-based
- Setup conditions: mouse, L929 mouse fibroblast cells, 25.00 µg/mL, read-out: viability of L929 cells (% of viable cells)
Measured viability at 24 h, 25 µg/mL of individual entries
Could you give me the number in %? Just the number is fine.

# count of solved cases: 2
Mol smiles	Recorded result
Cc1nc[nH]c1C(=O)NNC(=S)Nc1ccccc1Cl	86.3
Cc1nc[nH]c1C(=O)NNC(=S)Nc1ccc(I)cc1	84.4

Attention now turns to another entry.
Ask: What viability at 24 h, 25 µg/mL value was documented for this compound, Cc1nc[nH]c1C(=O)NNC(=S)Nc1cccc(Br)c1 ?
Result: 89
